molecular target: thrombin; experiment: chromogenic thrombin amidolytic activity assay; tight-binding model (Morrison equation)
pKi: −log10 of the molar value. Non-standard residues stand in square brackets, D forms with d. sY = N[C@@H](Cc1ccc(OS(=O)(=O)O)cc1)C(=O)O
measured_parameter: pKi

Example cases with answers are listed next.
| binder | measured_result |
| --- | --- |
| madanin-1 with a single sulfotyrosine at Tyr32 (peptide) MYPERDSAKEGNQEQERALHVKVQKRTDGDAD[sY]DEYEEDGTTPTPDPTAPTAKPRLRGNKPHHHHHH | 8.89 |
| chimadanin with a single biosynthesized sulfotyrosine at Tyr31 (sulfotyrosine at Tyr31 (counted without the initiator Met; residue 32 of SEQ ID NO: 107 as printed)) MQPKEKTKGVEVEGNPATLISARQMDVSYDEYEDNGPDVIPGEPAKPRGGPKNGAASGKFDQIPDFSSESHHHHHHH | 8.82 |
| chimadanin doubly sulfated at both Tyr28 and Tyr31 (sulfotyrosine at Tyr28 and Tyr31 (counted without the initiator Met; residues 29 and 32 of SEQ ID NO: 107 as printed)) MQPKEKTKGVEVEGNPATLISARQMDVSYDEYEDNGPDVIPGEPAKPRGGPKNGAASGKFDQIPDFSSESHHHHHHH | 10.00 |
| wildtype chimadanin (peptide) MQPKEKTKGVEVEGNPATLISARQMDVSYDEYEDNGPDVIPGEPAKPRGGPKNGAASGKFDQIPDFSSESHHHHHHH | 7.89 |
| chimadanin with a single biosynthesized sulfotyrosine at Tyr28 (sulfotyrosine at Tyr28 (counted without the initiator Met; residue 29 of SEQ ID NO: 107 as printed)) MQPKEKTKGVEVEGNPATLISARQMDVSYDEYEDNGPDVIPGEPAKPRGGPKNGAASGKFDQIPDFSSESHHHHHHH | 9.22 |

(A) madanin-1 sulfated at both Tyr32 and Tyr35 (peptide) MYPERDSAKEGNQEQERALHVKVQKRTDGDAD[sY]DE[sY]EEDGTTPTPDPTAPTAKPRLRGNKPHHHHHH
(B) madanin-1 with a single sulfotyrosine at Tyr35 (peptide) MYPERDSAKEGNQEQERALHVKVQKRTDGDADYDE[sY]EEDGTTPTPDPTAPTAKPRLRGNKPHHHHHH
Prompt line: Between A and B , which one shows the smaller pKi number? Give the label under which the chosen entry appears.
Response line: B
